tested on: S. aureus ATCC 29213; assay: MIC and MBC determination; type: cell-based; conditions: Staphylococcus aureus, ATCC29213; S. aureus; read-out: MBC
Threshold 30 µM: MBC strictly smaller gives class 1, otherwise class 0.

Solved cases below.
N#Cc1c(-c2ccc(Cl)cc2)c(C#N)c(=O)n(-c2ccc(S(=O)(=O)NC(=N)N)cc2)c1N : class 0
Cc1cc(C)n(-c2ccc(S(=O)(=O)NC(=N)N)cc2)c(=O)c1C#N : class 1
COc1ccc(/C=C(\C#N)C(=O)Nc2ccc(S(=O)(=O)NC(=N)N)cc2)cc1O : class 1
N=C(N)NS(=O)(=O)c1ccc(NC(=O)c2cc3ccccc3oc2=N)cc1 : class 0
COc1ccc(/C=C(\C#N)C(=O)Nc2ccc(S(=O)(=O)NC(=N)N)cc2)cc1 : class 0

API: the following record is the query input.
Just wondering, is MBC of N#CC(=Cc1ccc(Cl)cc1)C(=O)Nc1ccc(S(=O)(=O)NC(=N)N)cc1 below 30 µM?
class 0

----------
tested on: E. coli ATCC BAA-196; experiment: Inhibition zone against multidrug-resistant bacteria; format: cell-based; details: MDRB E. coli ATCC BAA-196
Mean Diameter of Inhibition Zone below 20 mm gives false; Mean Diameter of Inhibition Zone at or above it gives true.

Answer whether Mean Diameter of Inhibition Zone of N#Cc1c(-c2ccc(Cl)cc2)c(C#N)c(=O)n(-c2ccc(S(=O)(=O)NC(=N)N)cc2)c1N [Compound 3a] is greater than or equal to 20 mm.
true

Threshold query (Mean Diameter of Inhibition Zone >= 20 mm) on N#CC(=Cc1ccc(Cl)cc1)C(=O)Nc1ccc(S(=O)(=O)NC(=N)N)cc1 [Compound 2a]
true

// inclusive: Mean Diameter of Inhibition Zone at least 20 mm? input: CCn1cc(C(=O)O)c(=O)c2cc(F)c(N3CCNCC3)cc21 [Norfloxacin, reference compound]
true

Please check the record COc1ccc(/C=C(\C#N)C(=O)Nc2ccc(S(=O)(=O)NC(=N)N)cc2)cc1 [Compound 2b] and state if its Mean Diameter of Inhibition Zone is at or above 20 mm.
true

Confirm if Mean Diameter of Inhibition Zone reported for the molecule N=C(N)NS(=O)(=O)c1ccc(NC(=O)c2cc3ccccc3oc2=N)cc1 [Compound 11] is 20 mm or above.
false

Answer whether Mean Diameter of Inhibition Zone of COc1ccc(/C=C(\C#N)C(=O)Nc2ccc(S(=O)(=O)NC(=N)N)cc2)cc1O [Compound 2d] is greater than or equal to 20 mm.
true

----------
tested on: spleen and thymus; experiment: In vivo immunomodulation: immune organ weight and indexes; details: mice
Give Thymus weight for every item shown.
Answers are plain numbers, in mg.

Look over these answered cases.
N=C(N)NS(=O)(=O)c1ccc(NC(=O)c2cc3ccccc3oc2=N)cc1 : 13.67
Cc1cc(C)n(-c2ccc(S(=O)(=O)NC(=N)N)cc2)c(=O)c1C#N : 13.42
COc1ccc(/C=C(\C#N)C(=O)Nc2ccc(S(=O)(=O)NC(=N)N)cc2)cc1O : 15.56

Measured on spleen and thymus, O=C1O[C@H]([C@@H](O)CO)C(O)=C1O [Vitamin C, vitamin C, reference compound] has a documented Thymus weight of 17.2

----------
So I've got a bunch of compounds here, and I need their MFC values.
tested on: C. albicans (ATCC 10231); assay: MIC and MFC determination; assay type: cell-based; settings: Candida albicans, ATCC10231, read-out: MFC
Give bare numbers, in µM.

The following compounds have reported results that may help.
COc1ccc(/C=C(\C#N)C(=O)Nc2ccc(S(=O)(=O)NC(=N)N)cc2)cc1O [Compound 2d] : 37.6
COc1ccc(/C=C(\C#N)C(=O)Nc2ccc(S(=O)(=O)NC(=N)N)cc2)cc1 [Compound 2b] : 133
Cc1cc(C)n(-c2ccc(S(=O)(=O)NC(=N)N)cc2)c(=O)c1C#N [Compound 8] : 81.4
C[C@@H]1[C@H](O)[C@@H](C)/C=C/C=C/C=C/C=C/C=C/C=C/C=C/[C@H](O[C@@H]2O[C@H](C)[C@@H](O)[C@H](N)[C@@H]2O)C[C@@H]2O[C@](O)(C[C@@H](O)C[C@@H](O)[C@H](O)CC[C@@H](O)C[C@@H](O)CC(=O)O[C@H]1C)C[C@H](O)[C@H]2C(=O)O [Amphotericin B, amphotericin B, reference compound] : 37.3
N#CC(=Cc1ccc(Cl)cc1)C(=O)Nc1ccc(S(=O)(=O)NC(=N)N)cc1 [Compound 2a] : 103

For each entry beneath this line, provide reported MFC.
1. N=C(N)NS(=O)(=O)c1ccc(NC(=O)c2cc3ccccc3oc2=N)cc1 [Compound 11]
2. N#Cc1c(-c2ccc(Cl)cc2)c(C#N)c(=O)n(-c2ccc(S(=O)(=O)NC(=N)N)cc2)c1N [Compound 3a]

[45.6, 26.7]
